assayComment: Therapeutic index, ratio of LD50 for acute toxicity in sc dosed Kunming mouse to ratio of ED50 for analgesic activity against sc dosed acetic acid-induced Kunming writhing mouse model
Type: organism-based
assaySetup: in vivo, read-out: TI
Classify: met when selectivity ratio is strictly less than 50; not met when selectivity ratio is not.

| lineNotation | answerLabel |
| --- | --- |
| CCN1C[C@]2(OC(=O)c3ccccc3NS(=O)(=O)c3ccccc3)CC[C@H](OC)[C@]34C1[C@H](C[C@H]23)[C@@]1(O)C[C@H](OC)[C@H]2C[C@@H]4[C@]1(O)[C@H]2OC | not met |
| CCN1C[C@]2(OC(=O)c3ccccc3NC(=O)c3ccc(OC(C)C)cc3)CC[C@H](OC)[C@]34C1[C@H](C[C@H]23)[C@@]1(O)C[C@H](OC)[C@H]2C[C@@H]4[C@]1(O)[C@H]2OC | met |
| CCN1C[C@]2(OC(=O)c3ccccc3NS(=O)(=O)c3ccccc3OC)CC[C@H](OC)[C@]34C1[C@H](C[C@H]23)[C@@]1(O)C[C@H](OC)[C@H]2C[C@@H]4[C@]1(O)[C@H]2OC | not met |
| CCCOc1ccc(C(=O)Nc2ccccc2C(=O)O[C@@]23CC[C@H](OC)[C@]45C([C@H](C[C@H]24)[C@@]2(O)C[C@H](OC)[C@H]4C[C@@H]5[C@]2(O)[C@H]4OC)N(CC)C3)cc1 | met |
| CCN1C[C@]2(OC(=O)c3ccccc3NC(=O)c3ccc(OC)cc3)CC[C@H](OC)[C@]34C1[C@H](C[C@H]23)[C@@]1(O)C[C@H](OC)[C@H]2C[C@@H]4[C@]1(O)[C@H]2OC | not met |
| CCOc1ccc(C(=O)Nc2ccccc2C(=O)O[C@@]23CC[C@H](OC)[C@]45C([C@H](C[C@H]24)[C@@]2(O)C[C@H](OC)[C@H]4C[C@@H]5[C@]2(O)[C@H]4OC)N(CC)C3)cc1 | met |
| CCN1C[C@]2(OC(=O)c3ccccc3NS(=O)(=O)c3ccccn3)CC[C@H](OC)[C@]34C1[C@H](C[C@H]23)[C@@]1(O)C[C@H](OC)[C@H]2C[C@@H]4[C@]1(O)[C@H]2OC | not met |

* * *

// reported Activity per item
targetOrSystem: Voltage-gated inwardly rectifying potassium channel KCNH2 (Homo sapiens, UniProt Q12809)
Sequence (Q12809 whole entry): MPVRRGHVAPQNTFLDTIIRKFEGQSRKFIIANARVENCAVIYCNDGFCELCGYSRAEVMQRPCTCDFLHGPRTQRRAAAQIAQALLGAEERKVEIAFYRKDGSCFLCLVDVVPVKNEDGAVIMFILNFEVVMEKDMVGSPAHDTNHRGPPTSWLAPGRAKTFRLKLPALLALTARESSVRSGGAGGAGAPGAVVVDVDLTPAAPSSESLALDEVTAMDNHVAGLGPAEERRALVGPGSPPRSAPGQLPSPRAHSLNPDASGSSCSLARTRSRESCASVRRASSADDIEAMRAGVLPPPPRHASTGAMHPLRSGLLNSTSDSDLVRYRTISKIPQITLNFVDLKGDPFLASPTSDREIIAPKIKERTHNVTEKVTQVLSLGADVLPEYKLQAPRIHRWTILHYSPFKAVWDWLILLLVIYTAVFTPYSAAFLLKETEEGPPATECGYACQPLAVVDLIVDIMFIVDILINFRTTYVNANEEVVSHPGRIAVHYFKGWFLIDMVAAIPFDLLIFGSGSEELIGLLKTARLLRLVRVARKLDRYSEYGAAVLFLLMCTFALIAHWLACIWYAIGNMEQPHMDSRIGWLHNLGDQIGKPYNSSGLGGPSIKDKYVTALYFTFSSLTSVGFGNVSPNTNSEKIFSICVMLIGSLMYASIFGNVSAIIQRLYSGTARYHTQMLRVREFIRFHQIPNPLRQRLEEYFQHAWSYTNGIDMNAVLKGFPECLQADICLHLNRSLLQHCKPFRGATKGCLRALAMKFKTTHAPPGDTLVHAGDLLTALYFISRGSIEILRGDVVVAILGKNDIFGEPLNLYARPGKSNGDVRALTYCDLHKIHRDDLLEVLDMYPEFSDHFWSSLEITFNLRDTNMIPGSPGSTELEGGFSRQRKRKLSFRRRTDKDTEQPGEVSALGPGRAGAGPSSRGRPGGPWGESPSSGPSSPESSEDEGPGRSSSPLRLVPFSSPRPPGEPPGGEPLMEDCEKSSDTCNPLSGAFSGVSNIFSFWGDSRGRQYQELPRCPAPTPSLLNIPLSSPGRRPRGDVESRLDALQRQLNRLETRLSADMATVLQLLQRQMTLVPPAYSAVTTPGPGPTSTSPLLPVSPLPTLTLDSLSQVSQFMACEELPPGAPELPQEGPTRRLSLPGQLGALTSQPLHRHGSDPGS
assayComment: Inhibition of hERG expressed in HEK cells assessed as Rb+ efflux ratio at 1 mg/L incubated for 4 mins (reference value: 79.71 to 94.98 %)
Format: toxicity, cell-based
Parameters: scale not given: the % may be the effect or the level left
assaySetup: at 1 µg/mL
metricName: Activity (%)

| lineNotation | unitSymbol | numericReadout |
| --- | --- | --- |
| CCN1C[C@]2(OC(=O)c3ccccc3N)CC[C@H](OC)[C@]34C1[C@H](C[C@H]23)[C@@]1(O)C[C@H](OC)[C@H]2C[C@@H]4[C@]1(O)[C@H]2OC | % | 96.05 |
| CCN1C[C@]2(OC(=O)c3ccccc3NS(=O)(=O)c3ccccc3)CC[C@H](OC)[C@]34C1[C@H](C[C@H]23)[C@@]1(O)C[C@H](OC)[C@H]2C[C@@H]4[C@]1(O)[C@H]2OC | % | 88.87 |
| CCOc1ccc(C(=O)Nc2ccccc2C(=O)O[C@@]23CC[C@H](OC)[C@]45C([C@H](C[C@H]24)[C@@]2(O)C[C@H](OC)[C@H]4C[C@@H]5[C@]2(O)[C@H]4OC)N(CC)C3)cc1 | % | 79.38 |
| CCN1C[C@]2(OC(=O)c3ccccc3NC(=O)c3ccc(OC)cc3)CC[C@H](OC)[C@]34C1[C@H](C[C@H]23)[C@@]1(O)C[C@H](OC)[C@H]2C[C@@H]4[C@]1(O)[C@H]2OC | % | 77 |
| CCN1C[C@]2(OC(=O)c3ccccc3NC(=O)c3ccc(N(C)C)cc3)CC[C@H](OC)[C@]34C1[C@H](C[C@H]23)[C@@]1(O)C[C@H](OC)[C@H]2C[C@@H]4[C@]1(O)[C@H]2OC | % | 87.34 |
| CCN1C[C@]2(OC(=O)c3ccccc3NS(=O)(=O)c3ccccn3)CC[C@H](OC)[C@]34C1[C@H](C[C@H]23)[C@@]1(O)C[C@H](OC)[C@H]2C[C@@H]4[C@]1(O)[C@H]2OC | % | 95.97 |
| CCN1C[C@]2(OC(=O)c3ccccc3NS(=O)(=O)c3ccccc3OC)CC[C@H](OC)[C@]34C1[C@H](C[C@H]23)[C@@]1(O)C[C@H](OC)[C@H]2C[C@@H]4[C@]1(O)[C@H]2OC | % | 80.88 |

* * *

// reported Activity per item
targetOrSystem: Voltage-gated inwardly rectifying potassium channel KCNH2 (Homo sapiens, UniProt Q12809)
assayComment: Inhibition of hERG expressed in HEK cells assessed as Rb+ efflux ratio at 10 mg/L incubated for 4 mins (reference value: 79.71 to 94.98 %)
Type: toxicity, cell-based
Design: scale not given: the % may be the effect or the level left
assaySetup: at 10 µg/mL

| lineNotation | unitSymbol | Activity |
| --- | --- | --- |
| CCOc1ccc(C(=O)Nc2ccccc2C(=O)O[C@@]23CC[C@H](OC)[C@]45C([C@H](C[C@H]24)[C@@]2(O)C[C@H](OC)[C@H]4C[C@@H]5[C@]2(O)[C@H]4OC)N(CC)C3)cc1 | % | 80.07 |
| CCN1C[C@]2(OC(=O)c3ccccc3NS(=O)(=O)c3ccccc3)CC[C@H](OC)[C@]34C1[C@H](C[C@H]23)[C@@]1(O)C[C@H](OC)[C@H]2C[C@@H]4[C@]1(O)[C@H]2OC | % | 72.11 |
| CCN1C[C@]2(OC(=O)c3ccccc3NC(=O)c3ccc(N(C)C)cc3)CC[C@H](OC)[C@]34C1[C@H](C[C@H]23)[C@@]1(O)C[C@H](OC)[C@H]2C[C@@H]4[C@]1(O)[C@H]2OC | % | 85.86 |
| CCN1C[C@]2(OC(=O)c3ccccc3NS(=O)(=O)c3ccccc3OC)CC[C@H](OC)[C@]34C1[C@H](C[C@H]23)[C@@]1(O)C[C@H](OC)[C@H]2C[C@@H]4[C@]1(O)[C@H]2OC | % | 65.13 |
| CCN1C[C@]2(OC(=O)c3ccccc3N)CC[C@H](OC)[C@]34C1[C@H](C[C@H]23)[C@@]1(O)C[C@H](OC)[C@H]2C[C@@H]4[C@]1(O)[C@H]2OC | % | 92.35 |
| CCN1C[C@]2(OC(=O)c3ccccc3NS(=O)(=O)c3ccccn3)CC[C@H](OC)[C@]34C1[C@H](C[C@H]23)[C@@]1(O)C[C@H](OC)[C@H]2C[C@@H]4[C@]1(O)[C@H]2OC | % | 88.42 |
| CCN1C[C@]2(OC(=O)c3ccccc3NC(=O)c3ccc(OC)cc3)CC[C@H](OC)[C@]34C1[C@H](C[C@H]23)[C@@]1(O)C[C@H](OC)[C@H]2C[C@@H]4[C@]1(O)[C@H]2OC | % | 76.58 |

* * *

assayComment: Acute toxicity in sc dosed Kunming mouse assessed as mortality rate measured after 24 hrs
Type: organism-based
assaySetup: in vivo

| lineNotation | LD50 at 24 h |
| --- | --- |
| CCN1C[C@]2(OC(=O)c3ccccc3NC(=O)c3ccc(N(C)C)cc3)CC[C@H](OC)[C@]34C1[C@H](C[C@H]23)[C@@]1(O)C[C@H](OC)[C@H]2C[C@@H]4[C@]1(O)[C@H]2OC | 300 mg/kg |
| CCN1C[C@]2(OC(=O)c3ccccc3NS(=O)(=O)c3ccccn3)CC[C@H](OC)[C@]34C1[C@H](C[C@H]23)[C@@]1(O)C[C@H](OC)[C@H]2C[C@@H]4[C@]1(O)[C@H]2OC | > 400 mg/kg |
| CCN1C[C@]2(OC(=O)c3ccccc3NS(=O)(=O)c3ccccc3OC)CC[C@H](OC)[C@]34C1[C@H](C[C@H]23)[C@@]1(O)C[C@H](OC)[C@H]2C[C@@H]4[C@]1(O)[C@H]2OC | 300 mg/kg |
| CCN1C[C@]2(OC(=O)c3ccccc3NC(C)=O)CC[C@H](OC)[C@]34C1[C@H](C[C@H]23)[C@@]1(O)C[C@H](OC)[C@H]2C[C@@H]4[C@]1(O)[C@H]2OC | 11.7 mg/kg |
| CCOc1ccc(C(=O)Nc2ccccc2C(=O)O[C@@]23CC[C@H](OC)[C@]45C([C@H](C[C@H]24)[C@@]2(O)C[C@H](OC)[C@H]4C[C@@H]5[C@]2(O)[C@H]4OC)N(CC)C3)cc1 | 315 mg/kg |

* * *

// reported Activity per item
targetOrSystem: Voltage-gated inwardly rectifying potassium channel KCNH2 (Homo sapiens, UniProt Q12809)
assayComment: Inhibition of hERG expressed in HEK cells assessed as Rb+ efflux ratio at 100 mg/L incubated for 4 mins (reference value: 79.71 to 94.98 %)
Type: toxicity, cell-based
Design: scale not given: the % may be the effect or the level left
assaySetup: at 100 µg/mL
metricName: Activity

| lineNotation | result |
| --- | --- |
| CCN1C[C@]2(OC(=O)c3ccccc3NS(=O)(=O)c3ccccc3OC)CC[C@H](OC)[C@]34C1[C@H](C[C@H]23)[C@@]1(O)C[C@H](OC)[C@H]2C[C@@H]4[C@]1(O)[C@H]2OC | 50.83% |
| CCN1C[C@]2(OC(=O)c3ccccc3N)CC[C@H](OC)[C@]34C1[C@H](C[C@H]23)[C@@]1(O)C[C@H](OC)[C@H]2C[C@@H]4[C@]1(O)[C@H]2OC | 65.7% |
| CCN1C[C@]2(OC(=O)c3ccccc3NS(=O)(=O)c3ccccn3)CC[C@H](OC)[C@]34C1[C@H](C[C@H]23)[C@@]1(O)C[C@H](OC)[C@H]2C[C@@H]4[C@]1(O)[C@H]2OC | 73.6% |
| CCOc1ccc(C(=O)Nc2ccccc2C(=O)O[C@@]23CC[C@H](OC)[C@]45C([C@H](C[C@H]24)[C@@]2(O)C[C@H](OC)[C@H]4C[C@@H]5[C@]2(O)[C@H]4OC)N(CC)C3)cc1 | 76.45% |
| CCN1C[C@]2(OC(=O)c3ccccc3NC(=O)c3ccc(N(C)C)cc3)CC[C@H](OC)[C@]34C1[C@H](C[C@H]23)[C@@]1(O)C[C@H](OC)[C@H]2C[C@@H]4[C@]1(O)[C@H]2OC | 84.7% |
| CCN1C[C@]2(OC(=O)c3ccccc3NS(=O)(=O)c3ccccc3)CC[C@H](OC)[C@]34C1[C@H](C[C@H]23)[C@@]1(O)C[C@H](OC)[C@H]2C[C@@H]4[C@]1(O)[C@H]2OC | 44.12% |
| CCN1C[C@]2(OC(=O)c3ccccc3NC(=O)c3ccc(OC)cc3)CC[C@H](OC)[C@]34C1[C@H](C[C@H]23)[C@@]1(O)C[C@H](OC)[C@H]2C[C@@H]4[C@]1(O)[C@H]2OC | 69.69% |

Cited source for all entries: ChEMBL document CHEMBL5352433
